The values you see were collected from patent US5847092A.

# Tested on: Streptococcus pneumoniae BS 4
# procedure_summary: In vitro antibacterial activity, MIC, broth microdilution
# Assay type: cell-based
# experimental_context: Streptococcus pneumoniae, BS4; S. pneumoniae BS 4; MHB + 5% horse serum; 37° C., 18 hours; read-out: minimum inhibiting concentration MIC
Entries and their measured log10(MIC) follow.
Record value = log10 of MIC given in µg/mL.

Observe how each entry below is paired with its result.
INSERT INTO measurements (molecule, measurement) VALUES
  ('CC[C@H]1OC(=O)[C@H](C)[C@@H](O[C@H]2C[C@@](C)(OC)[C@@H](O)[C@H](C)O2)[C@H](C)[C@@H](O[C@@H]2O[C@H](C)C[C@H](N(C)C)[C@H]2O)[C@](C)(O)C[C@@H](C)/C(=N\OCCNCCCCCCNCc2ccc(O)c([N+](=O)[O-])c2)[C@H](C)[C@@H](O)[C@]1(C)O [Compound 36]', -1.20),
  ('CC[C@H]1OC(=O)[C@H](C)[C@@H](O[C@H]2C[C@@](C)(OC)[C@@H](O)[C@H](C)O2)[C@H](C)[C@@H](O[C@@H]2O[C@H](C)C[C@H](N(C)C)[C@H]2O)[C@](C)(O)C[C@@H](C)/C(=N\OCCNCCCCCCNCc2ccc3c(c2)OCO3)[C@H](C)[C@@H](O)[C@]1(C)O [Compound 18]', -1.51),
  ('CC[C@H]1OC(=O)[C@H](C)[C@@H](O[C@H]2C[C@@](C)(OC)[C@@H](O)[C@H](C)O2)[C@H](C)[C@@H](O[C@@H]2O[C@H](C)C[C@H](N(C)C)[C@H]2O)[C@](C)(O)C[C@@H](C)/C(=N\OCCNCCCCCCNCc2ccc(O)cc2)[C@H](C)[C@@H](O)[C@]1(C)O [Compound 28]', -0.60),
  ('CC[C@H]1OC(=O)[C@H](C)[C@@H](O[C@H]2C[C@@](C)(OC)[C@@H](O)[C@H](C)O2)[C@H](C)[C@@H](O[C@@H]2O[C@H](C)C[C@H](N(C)C)[C@H]2O)[C@](C)(O)C[C@@H](C)/C(=N\OCCNCCCCCCCCNCc2ccccc2)[C@H](C)[C@@H](O)[C@]1(C)O [Compound 9]', -2.11),
  ('CC[C@H]1OC(=O)[C@H](C)[C@@H](O[C@H]2C[C@@](C)(OC)[C@@H](O)[C@H](C)O2)[C@H](C)[C@@H](O[C@@H]2O[C@H](C)C[C@H](N(C)C)[C@H]2O)[C@](C)(O)C[C@@H](C)/C(=N\OCCNCCCCCCNCc2ccc(OC)cc2)[C@H](C)[C@@H](O)[C@]1(C)O [Compound 17]', -1.20);

Param item = CC[C@H]1OC(=O)[C@H](C)[C@@H](O[C@H]2C[C@@](C)(OC)[C@@H](O)[C@H](C)O2)[C@H](C)[C@@H](O[C@@H]2O[C@H](C)C[C@H](N(C)C)[C@H]2O)[C@](C)(O)C[C@@H](C)/C(=N\OCCNCCCCCCNCc2ccc([N+](=O)[O-])cc2)[C@H](C)[C@@H](O)[C@]1(C)O [Compound 35] ; retrieve measured log10(MIC).
-2.41

Value lookup for log10(MIC); key = CC[C@H]1OC(=O)[C@H](C)[C@@H](O[C@H]2C[C@@](C)(OC)[C@@H](O)[C@H](C)O2)[C@H](C)[C@@H](O[C@@H]2O[C@H](C)C[C@H](N(C)C)[C@H]2O)[C@](C)(O)C[C@@H](C)/C(=N\OCCN(C)CCCCCCN(C)Cc2ccccc2)[C@H](C)[C@@H](O)[C@]1(C)O [Compound 38]
-2.41
